# assayed target: ATP-binding cassette sub-family C member 2 (ABCC2) (Rattus norvegicus)
# Sequence (Q63120 whole entry): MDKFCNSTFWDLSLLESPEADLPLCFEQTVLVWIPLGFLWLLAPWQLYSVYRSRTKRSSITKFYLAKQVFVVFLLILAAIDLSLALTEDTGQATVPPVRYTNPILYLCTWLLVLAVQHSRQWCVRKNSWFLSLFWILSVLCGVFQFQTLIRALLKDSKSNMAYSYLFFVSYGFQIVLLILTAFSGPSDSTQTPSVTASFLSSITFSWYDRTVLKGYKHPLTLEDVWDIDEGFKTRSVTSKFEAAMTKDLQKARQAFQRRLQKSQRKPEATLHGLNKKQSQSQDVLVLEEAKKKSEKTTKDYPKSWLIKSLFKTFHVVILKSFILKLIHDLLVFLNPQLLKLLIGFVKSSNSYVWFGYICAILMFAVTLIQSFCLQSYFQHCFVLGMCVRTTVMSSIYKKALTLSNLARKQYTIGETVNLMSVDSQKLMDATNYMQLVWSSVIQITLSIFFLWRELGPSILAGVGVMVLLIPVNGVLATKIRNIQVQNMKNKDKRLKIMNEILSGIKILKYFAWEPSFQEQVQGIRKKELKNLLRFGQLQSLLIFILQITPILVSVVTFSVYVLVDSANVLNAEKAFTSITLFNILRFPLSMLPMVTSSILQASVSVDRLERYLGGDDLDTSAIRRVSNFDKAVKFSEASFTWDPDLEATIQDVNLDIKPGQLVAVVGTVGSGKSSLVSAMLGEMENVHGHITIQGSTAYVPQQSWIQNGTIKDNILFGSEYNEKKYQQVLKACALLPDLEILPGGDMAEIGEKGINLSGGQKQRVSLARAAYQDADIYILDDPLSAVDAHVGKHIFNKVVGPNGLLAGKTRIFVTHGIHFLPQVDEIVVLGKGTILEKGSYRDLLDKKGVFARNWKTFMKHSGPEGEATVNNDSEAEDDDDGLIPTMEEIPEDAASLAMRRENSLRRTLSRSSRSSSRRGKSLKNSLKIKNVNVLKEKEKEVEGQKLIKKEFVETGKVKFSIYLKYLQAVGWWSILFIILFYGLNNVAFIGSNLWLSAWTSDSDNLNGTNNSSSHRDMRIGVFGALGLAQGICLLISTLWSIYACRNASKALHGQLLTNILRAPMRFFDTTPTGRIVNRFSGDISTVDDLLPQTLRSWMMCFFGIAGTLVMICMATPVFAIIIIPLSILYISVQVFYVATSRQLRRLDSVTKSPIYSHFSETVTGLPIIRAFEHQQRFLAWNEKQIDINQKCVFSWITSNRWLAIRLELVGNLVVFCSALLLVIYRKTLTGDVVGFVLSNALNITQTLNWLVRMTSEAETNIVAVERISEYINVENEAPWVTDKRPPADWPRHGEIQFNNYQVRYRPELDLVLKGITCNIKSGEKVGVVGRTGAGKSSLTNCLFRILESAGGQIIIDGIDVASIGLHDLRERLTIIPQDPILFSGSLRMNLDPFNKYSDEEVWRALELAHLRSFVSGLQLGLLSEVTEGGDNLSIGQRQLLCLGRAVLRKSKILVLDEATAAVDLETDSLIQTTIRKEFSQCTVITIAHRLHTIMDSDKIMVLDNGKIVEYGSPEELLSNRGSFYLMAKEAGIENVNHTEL
# method: TP_TRANSPORTER: inhibition of LTC4 uptake (LTC4: 0.01 uM, Vinblastine: 100 uM) in liver plasma membrane vesicles of Wistar rat
# Type: functional, cell membranes, Plasma membrane vesicle
# Parameters: scale not given: the % may be the effect or the level left
# test context: probe LTC4 (0.01 uM), read-out: Activity
measured attribute: activity at 100 µM (%)
Expressed in %, but write only the number.

(Q) Please report the recorded activity at 100 µM for CC[C@]1(O)C[C@@H]2CN(CCc3c([nH]c4ccccc34)[C@@](C(=O)OC)(c3cc4c(cc3OC)N(C)[C@H]3[C@@](O)(C(=O)OC)[C@H](OC(C)=O)[C@]5(CC)C=CCN6CC[C@]43[C@@H]65)C2)C1 .
(A) 29
